Recorded values, source ChEMBL document CHEMBL4350993.

# system.name: Acetylcholinesterase (Electrophorus electricus, UniProt O42275)
# Sequence (O42275 whole entry): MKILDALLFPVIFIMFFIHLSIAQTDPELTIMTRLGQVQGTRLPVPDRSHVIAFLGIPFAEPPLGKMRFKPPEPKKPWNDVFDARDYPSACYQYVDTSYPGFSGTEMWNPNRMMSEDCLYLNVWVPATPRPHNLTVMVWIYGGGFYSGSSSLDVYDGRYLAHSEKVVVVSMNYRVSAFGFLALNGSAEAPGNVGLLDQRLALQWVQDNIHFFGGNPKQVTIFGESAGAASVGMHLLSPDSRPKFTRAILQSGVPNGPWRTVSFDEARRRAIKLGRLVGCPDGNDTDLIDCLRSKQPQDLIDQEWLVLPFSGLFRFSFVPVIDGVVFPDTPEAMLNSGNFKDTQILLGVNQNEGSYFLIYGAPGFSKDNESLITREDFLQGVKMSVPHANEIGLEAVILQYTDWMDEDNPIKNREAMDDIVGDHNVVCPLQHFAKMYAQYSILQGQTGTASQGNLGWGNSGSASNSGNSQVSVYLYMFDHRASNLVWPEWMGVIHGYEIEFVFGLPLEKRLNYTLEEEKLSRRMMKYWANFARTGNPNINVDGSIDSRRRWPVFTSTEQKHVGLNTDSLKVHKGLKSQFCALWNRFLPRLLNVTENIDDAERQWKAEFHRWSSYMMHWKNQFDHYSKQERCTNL
# experiment: Inhibition of electric eel AChE assessed as reduction in production of H202 using acetylcholine as substrate incubated for 15 mins followed by substrate addition by horse radish peroxidase/Amplex red reagent based fluorescence assay
List of IC50 values.
# unit: µM | format: bare number

Examples from the recorded data:
smiles_string=C#CCOc1ccc(-c2cc(-c3cccc(OCC#C)c3)nc(-c3ccccc3)n2)cc1 result_number=4.39
smiles_string=C#CCOc1ccc(-c2cc(-c3ccccc3OCC#C)nc(N)n2)cc1 result_number=1.81
smiles_string=C#CCOc1cccc(-c2cc(-c3cccc(OCC#C)c3)nc(N)n2)c1 result_number=6.99
smiles_string=C#CCOc1ccc(-c2cc(-c3ccc(OCC#C)c(OC)c3)nc(-c3ccccc3)n2)cc1 result_number=6.99
smiles_string=C#CCOc1ccc(-c2cc(-c3ccc(OCC#C)cc3)nc(C)n2)cc1 result_number=1.76

Request: Item "C#CCOc1ccc(-c2cc(-c3ccccc3OCC#C)nc(-c3ccccc3)n2)cc1" with Acetylcholinesterase (Electrophorus electricus, UniProt O42275) - IC50?
Response: 7.25

Request: Next molecule: "C#CCOc1ccc(-c2cc(-c3ccc(OCC#C)c(OC)c3)nc(C)n2)cc1"
Response: 5.92

Request: Would you mind doing "C#CCOc1ccc(-c2cc(-c3ccc(OCC#C)c(OCC)c3)nc(-c3ccccc3)n2)cc1" as well?
Response: 6.94

Request: Next record, please: "C#CCOc1cccc(-c2cc(-c3cccc(OCC#C)c3)nc(-c3ccccc3)n2)c1"
Response: 6.73

====

# system.name: Amine oxidase [flavin-containing] A (Homo sapiens)
# Sequence (P21397 whole entry): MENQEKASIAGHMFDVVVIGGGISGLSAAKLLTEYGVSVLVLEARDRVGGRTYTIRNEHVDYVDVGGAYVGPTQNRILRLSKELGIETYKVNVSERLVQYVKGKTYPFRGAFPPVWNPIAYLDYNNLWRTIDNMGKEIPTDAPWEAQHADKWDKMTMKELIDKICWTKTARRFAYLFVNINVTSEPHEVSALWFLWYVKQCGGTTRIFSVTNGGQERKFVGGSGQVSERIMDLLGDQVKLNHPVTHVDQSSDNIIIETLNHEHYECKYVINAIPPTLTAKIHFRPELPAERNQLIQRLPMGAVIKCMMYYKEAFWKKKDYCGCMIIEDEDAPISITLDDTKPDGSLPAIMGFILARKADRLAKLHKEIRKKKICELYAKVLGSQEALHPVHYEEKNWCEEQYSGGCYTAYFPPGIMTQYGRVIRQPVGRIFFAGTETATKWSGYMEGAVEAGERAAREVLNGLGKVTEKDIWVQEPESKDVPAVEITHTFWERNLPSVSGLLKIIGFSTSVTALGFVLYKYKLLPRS
# experiment: Inhibition of human recombinant microsomal MAO-A expressed in baculovirus infected BTI-TN-5B1-4 cells assessed as reduction in production of H202 using p-tyramine as substrate incubated for 30 mins followed by substrate addition by horse radish peroxidase/Amplex red reagent based fluorescence assay
# Format: cell-based
# condition.context: read-out: IC50
Reported pIC50 values for a set of molecules
Interpret pIC50 as the negative base-10 log of the concentration measured in mol/L.

Field: example entries. Status: answers known.
smiles_string=C#CCOc1ccc(-c2cc(-c3ccccc3OCC#C)nc(-c3ccccc3)n2)cc1 result_number=4.66
smiles_string=C#CCOc1ccc(-c2cc(-c3ccc(OCC#C)cc3)nc(-c3ccccc3)n2)cc1 result_number=4.59

Consider the additional molecule presented here.
Request: pIC50 for "C#CCOc1ccc(-c2cc(-c3ccc(OCC#C)c(OC)c3)nc(-c3ccccc3)n2)cc1" ?
Response: 4.60

====

# system.name: UniProtKB P27338
# Sequence (P27338 whole entry): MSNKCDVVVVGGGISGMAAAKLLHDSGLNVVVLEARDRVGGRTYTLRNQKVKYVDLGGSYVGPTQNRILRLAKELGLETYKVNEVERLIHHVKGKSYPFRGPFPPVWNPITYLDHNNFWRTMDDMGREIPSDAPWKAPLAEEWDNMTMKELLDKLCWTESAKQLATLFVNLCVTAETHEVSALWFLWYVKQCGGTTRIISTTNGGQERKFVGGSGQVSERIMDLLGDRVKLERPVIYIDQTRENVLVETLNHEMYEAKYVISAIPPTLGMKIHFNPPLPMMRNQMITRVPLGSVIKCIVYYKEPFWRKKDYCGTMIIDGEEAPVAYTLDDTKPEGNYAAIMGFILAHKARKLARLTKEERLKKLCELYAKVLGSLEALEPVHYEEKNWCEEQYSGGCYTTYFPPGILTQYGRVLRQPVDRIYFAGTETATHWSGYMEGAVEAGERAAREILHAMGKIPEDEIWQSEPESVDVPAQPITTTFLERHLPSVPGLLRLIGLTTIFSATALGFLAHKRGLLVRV
# experiment: Inhibition of human recombinant microsomal MAO-B expressed in baculovirus infected BTI-TN-5B1-4 cells assessed as reduction in production of H202 using p-tyramine as substrate incubated for 30 mins followed by substrate addition by horse radish peroxidase/Amplex red reagent based fluorescence assay
experimental.readout: pIC50
Kindly note that pIC50 refers to -log10 of the concentration in mol/L and answer with the value alone.

smiles_string=C#CCOc1ccc(-c2cc(-c3ccccc3OCC#C)nc(-c3ccccc3)n2)cc1 result_number=4.84
smiles_string=C#CCOc1ccccc1-c1cc(-c2ccccc2OCC#C)nc(-c2ccccc2)n1 result_number=4.86
smiles_string=C#CCOc1ccc(-c2cc(-c3cccc(OCC#C)c3)nc(N)n2)cc1 result_number=5.83
smiles_string=C#CCOc1cccc(-c2cc(-c3cccc(OCC#C)c3)nc(-c3ccccc3)n2)c1 result_number=4.63
smiles_string=C#CCOc1ccc(-c2cc(-c3cccc(OCC#C)c3)nc(-c3ccccc3)n2)cc1 result_number=4.75
smiles_string=C#CCOc1ccc(-c2cc(-c3ccc(OCC#C)c(OCC)c3)nc(C)n2)cc1 result_number=4.96
smiles_string=C#CCOc1ccc(-c2cc(-c3ccc(OCC#C)c(OCC)c3)nc(-c3ccccc3)n2)cc1 result_number=4.54
smiles_string=C#CCOc1ccc(-c2cc(-c3ccc(OCC#C)c(OC)c3)nc(C)n2)cc1 result_number=4.68

Request: Quick one: pIC50 of "C#CCOc1ccc(-c2cc(-c3ccccc3OCC#C)nc(C)n2)cc1" ?
Response: 4.74

Request: Now consider "C#CCOc1ccc(-c2cc(-c3ccc(OCC#C)c(OC)c3)nc(-c3ccccc3)n2)cc1" and answer again.
Response: 4.80

Request: For "C#CCOc1cccc(-c2cc(-c3cccc(OCC#C)c3)nc(N)n2)c1" then?
Response: 4.66
